ASSAY_EXPLANATION: Drug concentration in C57BL/6 mouse plasma at 5 mg/kg, po administered once daily for 3 days and measured at 24 hrs post last dose
Type: ADME, organism-based
EXPERIMENTAL_CONDITIONS: time 3 day
QUANTITY_MEASURED: concentration at 72 h

So what does the record say about concentration at 72 h for Nc1nnc(-c2ccccc2O)cc1N1CCN(Cc2ccc(N3CCC(CN4CCN(c5ccc6c(c5)C(=O)N(C5CCC(=O)NC5=O)C6=O)CC4)CC3)c(F)c2)CC1 (stereo unspecified) ?
~100 nM

* * *

ASSAY_EXPLANATION: Drug concentration in CRBN I391V mutant mouse plasma at 80 mg/kg, po administered once daily for 3 days and measured at 24 hrs post last dose
Assay type: ADME, organism-based
EXPERIMENTAL_CONDITIONS: time 3 day
QUANTITY_MEASURED: concentration at 72 h (nM)
Number in nM, nothing else.

So what does the record say about concentration at 72 h for Nc1nnc(-c2ccccc2O)cc1N1CCN(Cc2ccc(N3CCC(CN4CCN(c5ccc6c(c5)C(=O)N(C5CCC(=O)NC5=O)C6=O)CC4)CC3)c(F)c2)CC1 (stereo unspecified) ?
2450

* * *

ASSAY_EXPLANATION: Inhibition of colony formation in human NCI-H2122 cells harboring wild type SMARCA4 incubated for 9 to 14 days by crystal violet staining based assay
Type: functional, cell-based
EXPERIMENTAL_CONDITIONS: Homo sapiens, NCI-H2122; read-out: IC50
QUANTITY_MEASURED: IC50 (µM)
Number in µM, nothing else.

So what does the record say about IC50 for Nc1nnc(-c2ccccc2O)cc1N1CCN(Cc2ccc(N3CCN(CCOc4cccc5c4C(=O)N(C4CCC(=O)NC4=O)C5=O)CC3)c(F)c2)CC1 (stereo unspecified) ?
9.1

* * *

Each entry below carries its recorded IC50.
Test system: NCI-H1693
ASSAY_EXPLANATION: Inhibition of colony formation in human NCI-H1693 cells harboring SMARCA4 mutant incubated for 9 to 14 days by crystal violet staining based assay
Format: functional, cell-based

[[record]]
molecule = "Nc1nnc(-c2ccccc2O)cc1N1CCN(Cc2ccc(N3CCC(CN4CCN(c5ccc6c(c5)C(=O)N(C5CCC(=O)NC5=O)C6=O)CC4)CC3)c(F)c2)CC1 (configuration not stated)"
target_system = "NCI-H1693"
quantity_measured = "IC50"
observed_measurement = "78 nM"


Query molecule follows.
So what does the record say about IC50 for Nc1nnc(-c2ccccc2O)cc1N1CCN(Cc2ccc(N3CCN(CCOc4cccc5c4C(=O)N(C4CCC(=O)NC4=O)C5=O)CC3)c(F)c2)CC1 (configuration not stated) ?
11 nM

Numbers sourced from ChEMBL document CHEMBL6134900.
